Tested Target: T1, recombinant human LAG3 (Sino Biological Inc.) (human, UniProt P18627 23-450)
T1 construct: Bought recombinant protein; also called CD223; biotinylated recombinant human LAG3
T1 sequence (looked up): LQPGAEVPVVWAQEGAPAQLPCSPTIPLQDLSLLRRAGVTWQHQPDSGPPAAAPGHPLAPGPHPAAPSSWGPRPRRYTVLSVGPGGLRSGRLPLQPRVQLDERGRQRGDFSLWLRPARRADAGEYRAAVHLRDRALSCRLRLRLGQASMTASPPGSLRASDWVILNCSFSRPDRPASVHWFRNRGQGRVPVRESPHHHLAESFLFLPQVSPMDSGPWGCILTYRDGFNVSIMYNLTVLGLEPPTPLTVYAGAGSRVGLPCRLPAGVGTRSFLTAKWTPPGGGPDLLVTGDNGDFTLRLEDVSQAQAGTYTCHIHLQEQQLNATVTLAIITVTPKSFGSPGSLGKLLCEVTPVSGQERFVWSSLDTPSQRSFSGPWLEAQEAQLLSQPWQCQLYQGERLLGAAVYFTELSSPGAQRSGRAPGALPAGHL
Protocol Summary: ELISA, recombinant human LAG3 coated, Fab detected by anti-FLAG-HRP
Property: binding result

// recorded binding result for DNV3.1 Fab (Fab, V domains shown) VH: EVQLVQSGAEVKKPGASVKVSCKASGYTFTSYGISWVRQAPGQGLEWMGWISAYNGNTNYAQKLQGRVTMTTDTSTSTAYMELRSLRSDDTAVYYCARDSSSWWVDAFDIWGQGTMVTVSS VL: LPVLTQPPSASGTPGQRVTISCSGSSSNIGGNSVNWYQQLPGTAPKLLIYSDNQRPSGVPDRFSGSKSGTSASLAISGLQSEEEADYYCAAWDDSLNAYVFGPGTKVTVL : binds

// recorded binding result for DNV3.16 Fab (Fab, V domains shown, Light-chain-shuffled Fab variant of DNV3) VH: EVQLVQSGAEVKKPGASVKVSCKASGYTFTSYGISWVRQAPGQGLEWMGWISAYNGNTNYAQKLQGRVTMTTDTSTSTAYMELRSLRSDDTAVYYCARDSSSWWVDAFDIWGQGTMVTVSS VL: SYVLTQPPSASGTPGQRVTISCSGGSSNIASNAVNWYQQFPGKAPKLLVYYDDLLPSGVSDRFSGSKTGTSASLAISALQSEDEADYFCAAWDDSLNGVLFGGGTKLTVL : binds

// recorded binding result for DNV3.3 Fab (Fab, V domains shown, Light-chain-shuffled Fab variant of DNV3) VH: EVQLVQSGAEVKKPGASVKVSCKASGYTFTSYGISWVRQAPGQGLEWMGWISAYNGNTNYAQKLQGRVTMTTDTSTSTAYMELRSLRSDDTAVYYCARDSSSWWVDAFDIWGQGTMVTVSS VL: QSVLTQPPSASGTPGQRVTISCSGSSSNIGNNAVNWYQQLPGKAPKLLIYYDDLLPSGVSDRFSGSKSGTSASLAISGLRSEDEGDYFCAAWDDSLSGQVLFGGGTKLTVL : binds
